Substrate: NP of A/Brisbane/59/2007(H1N1/H1B) (influenza A virus A/Brisbane/59/2007 (H1N1))
METHOD: sandwich ELISA, capture IgG; NP of lysed virus titrated; HRP-NP17 detection
Listed here are binders together with their documented EC50.
Numeric only. Scale: nM

Consider the worked cases shown below.
BINDER	EC50 / nM
NP3 (antibody, V domains shown) VH: EVQLVESGGGLVQPGGSLRLSCAASGFTISNYGIHWVRQAPGKGLEWVAGIWPFGGFTSYADSVKGRFTISADTSKNTAYLQMNSLRAEDTAVYYCARFHWNDHGYMDYWGQGTLVTVSS VL: DIQMTQSPSSLSASVGDRVTITCRASQDVGWYVAWYQQKPGKAPKLLIYSTTGLYSGVPSRFSGSGSGTDFTLTISSLQPEDFATYYCQQYYNYPITFGQGTKVEIKR	1.04
NP16 (antibody, V domains shown) VH: EVQLVESGGGLVQPGGSLRLSCAASGFTIGNSGIHWVRQAPGKGLEWVAWIGPYWGFTSYADSVKGRFTISADTSKNTAYLQMNSLRAEDTAVYYCARFGNHWHLFMDYWGQGTLVTVSS VL: DIQMTQSPSSLSASVGDRVTITCRASQDVGSYVAWYQQKPGKAPKLLISWTTGLYSGVPSRFSGSGSGTDFTLTISSLQPEDFATYYCQQYFSYPVTFGQGTKVEIKR	0.89
NP22 (antibody, V domains shown) VH: EVQLVESGGGLVQPGGSLRLSCAASGFTISDWSIHWVRQAPGKGLEWVAGIWPYWGSTSYADSVKGRFTISADTSKNTAYLQMNSLRAEDTAVYYCARGFYSWFDYWGQGTLVTVSS VL: DIQMTQSPSSLSASVGDRVTITCRASQDVFSWVAWYQQKPGKAPKLLISSASSLYSGVPSRFSGSGSGTDFTLTISSLQPEDFATYYCQQSWDYPITFGQGTKVEIKR	102

Query: EC50; subject: NP5 (antibody, V domains shown) VH: EVQLVESGGGLVQPGGSLRLSCAASGFTISNGSIHWVRQAPGKGLEWVAGIWPSGGSTSYADSVKGRFTISADTINNSAYLQMNSLRAEDTAVYYCARWNYWGQGTLVTVSS VL: DIQMTQSPSSLSASVGDRVTITCRASQDVGWSVAWYQQKPGKAPKLLIYGSRWLYSGVPSRFSGSGSGTDFTLTISSLQPEDFATYYCQQGYNGPLTFGQGTKVEIKR
1.82
